# Species on record: Rattus norvegicus
# measurement-notes: Open TG-GATES - Regimen: Single
# Assay type: toxicity, organism-based, Sprague-Dawley
# Parameters: regimen Single, gender Male, age 6 weeks
# experimental-conditions: in vivo, po, 0 mg/kg, 24 h, tissue Blood, route gavage, dose level Control
Please go through the items and note down their MCV.
Numbers only, in fL.

>  <compound>
CNC(=C[N+](=O)[O-])NCCSCc1ccc(CN(C)C)o1

>  <unit-descriptor>
fL

>  <test-result>
63.9

$$$$
>  <compound>
CN1C(=O)CCS(=O)(=O)C1c1ccc(Cl)cc1 (centres undefined)

>  <unit-descriptor>
fL

>  <test-result>
62.9

$$$$
>  <compound>
CC(C)NNC(=O)c1ccncc1

>  <unit-descriptor>
fL

>  <test-result>
62.3

$$$$
>  <compound>
NC1=NC(=O)C(c2ccccc2)O1 (centres undefined)

>  <unit-descriptor>
fL

>  <test-result>
64.2

$$$$
>  <compound>
CCCc1cc(=O)[nH]c(=S)[nH]1

>  <unit-descriptor>
fL

>  <test-result>
65.5

$$$$
>  <compound>
CS(=O)(=O)O.Cc1ccc(NC(=O)c2ccc(CN3CCN(C)CC3)cc2)cc1Nc1nccc(-c2cccnc2)n1 [IMATINIB MESYLATE]

>  <unit-descriptor>
fL

>  <test-result>
65.5

$$$$

Would you mind giving MCV for every compound in the list below?
1. CN/C(=N/CCSCc1nc[nH]c1C)NC#N
2. O=C(OC[C@H]1O[C@@H](OC(=O)c2cc(O)c(O)c(OC(=O)c3cc(O)c(O)c(O)c3)c2)[C@H](OC(=O)c2cc(O)c(O)c(OC(=O)c3cc(O)c(O)c(O)c3)c2)[C@@H](OC(=O)c2cc(O)c(O)c(OC(=O)c3cc(O)c(O)c(O)c3)c2)[C@@H]1OC(=O)c1cc(O)c(O)c(OC(=O)c2cc(O)c(O)c(O)c2)c1)c1cc(O)c(O)c(OC(=O)c2cc(O)c(O)c(O)c2)c1
3. Nc1c2c(nc3ccccc13)CCCC2
4. Cc1nnc2n1-c1ccc(Cl)cc1C(c1ccccc1Cl)=NC2
5. COC(=O)C1=C(C)NC(C)=C(C(=O)OC)C1c1ccccc1[N+](=O)[O-]
6. CN(C)CCC(c1ccc(Cl)cc1)c1ccccn1 (centres undefined)

63.8
66.1
61.9
64.1
65.5
66

Would you mind giving MCV for every compound in the list below?
1. CCOc1ccc(NC(C)=O)cc1
2. Brc1ccccc1

[63.7, 62.6]
